self-cleavage listing for selected variants.
B1: Osa-1-4 twister ribozyme (parent)
chain: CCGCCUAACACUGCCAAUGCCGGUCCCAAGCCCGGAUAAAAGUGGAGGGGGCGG

Variants of: B1
Assay: self-cleavage, relative activity (ratio to wild type); higher = more cleavage; co-transcriptional
MEASUREMENT_TYPE: self-cleavage

# MUTATION_DESCRIPTOR, MEASUREMENT_TYPE, NUMERIC_RESULT
records = [
    ("C14G U43G", "self-cleavage", 0.06),
    ("A46C A7G", "self-cleavage", 0.04),
    ("C26A G30U", "self-cleavage", 0.01),
    ("G23A G34C", "self-cleavage", 0.07),
    ("A29G C27G", "self-cleavage", 0.06),
    ("C52A U43A", "self-cleavage", 0.85),
    ("G54A U18C", "self-cleavage", 0.93),
    ("C32A G44A", "self-cleavage", 0.06),
    ("C9A U12A", "self-cleavage", 0.16),
    ("A39C A7C", "self-cleavage", 0.06),
    ("C21A G30U", "self-cleavage", 0.04),
]

Values were extracted from the RNAGym collection of RNA variant scans (doi:10.1002/anie.201605470).
